B1: Formin-binding protein 4, residues 593 to 636; numbered along this chain, Q8N3X1 (parent)
chain: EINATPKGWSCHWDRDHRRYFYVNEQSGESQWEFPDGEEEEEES

Variants of: B1
Assay: abundance fitness (aPCA) (normalised: wild type 0, dead -1); higher = more abundant; growth selection in yeast, the domain comes from the species named
Conditions: Homo sapiens
Binned abundance fitness; ranges: zone 1: < -0.3; zone 2: ≥ -0.3 and < -0.06; zone 3: ≥ -0.06

Reference set, count: 3
>>> answer_label("EINATPKGMSCHWDRDHRRYFYVNEQSGESQWEFPDGEEEEEES [W9M]")
"zone 1"
>>> answer_label("EINATPKGWSCHWDRDHRRYFYVNEQSGESQWEFPDGEEEEEAS [E43A]")
"zone 3"
>>> answer_label("EINATPKGWSCHWDRDHRRYFYVNEQSGESQWEFPDGEEECEES [E41C]")
"zone 3"

[ask] Where would EINATPKGWSCHWDRDHRRYFYVNEQSGESQWEFPDGEEEEELS [E43L] land among the classes by reported abundance fitness?
[reply] zone 2

[ask] Where would EINATPKGWSCHWDRDHRRYFYVNEQSGESQFEFPDGEEEEEES [W32F] land among the classes by reported abundance fitness?
[reply] zone 3
